For each record, write down the corresponding MCC50.
# Tested on: T. cruzi intracellular amastigotes in H9c2 cells
# Assay explanation: Rate-of-Kill (RoK) high-content imaging assay, amastigotes per cell (AM/CELL) and curve descriptors
# Type: cell-based, Trypanosoma cruzi
# Test settings: figure 5; in µM
# Procedure: For this high-content intracellular imaging assay, H9c2 cells were seeded in 225 cm^2 T- FLASK in DMEM with 10% FBS for 4 h to allow attachment. […] Trypomastigotes were then collected and counted in a CASY Cell Counter using the 60 μm capillary. […] Cells were counted in a CASY Cell Counter, using the 150 μm capillary, and their density set at 5 x 10^4 cells/mL in supplemented DMEM. […] Then plates were read in a PerkinElmer Opera Phenix using a 20x objective, 3 fields per well. […]

# input compound: `O=C(NCC1CCCCC1)c1cc(=O)c2ccccc2o1` ; wanted: its MCC50 5.556

// next record CC(C)c1cc(C(=O)N2CCCC(c3cc4ncccc4[nH]3)C2)on1 (centres unmarked) 16.6667

Try the compound `CN(C)Cc1ccc(N2CCC(NS(=O)(=O)c3ccc(Cl)cc3)CC2)cc1` 25.9259

Can you handle Cl.O=c1cc(NCCCNC2CCOc3c(I)cc(Cl)cc32)[nH]c2ccccc12 (centres unmarked) next? 5.556

Can you check `N#Cc1ccc(S(=O)(=O)N2CCC3(CCN(c4ccccc4)C3=O)CC2)cc1` next? 27.7778
